Biological target: HLA-DRB1*01:01 (Homo sapiens, UniProt P01903+P01911, A100R/D57E/F55L/F60I/F76Y/I96L/L162R/M171V/P40L/Q125E/R42F/V115G/Y59C)
Construct: EBV transformed homozygous cell lines were used as sources of MHC molecules; endogenous in cells; host or cells: EBV transformed homozygous cell lines
Test: HLA class II peptide binding, inhibition of radiolabeled peptide binding to purified MHC
Conditions: ratio of WT IC50 to Cit IC50; >1 = citrullination increases binding
Square brackets hold non-standard residues; d marks the D form. Peptide text beside a SMILES is read from it. Cit = NC(=O)NCCC[C@H](N)C(=O)O
Answer each item with its documented DRB1*01:01 binding capacity, WT/cit ratio.
Numbers only.

>  <compound>
C[C@H](NC(=O)[C@@H]1CCCN1C(=O)CNC(=O)[C@@H]1CCCN1)C(=O)NCC(=O)N1CCC[C@H]1C(=O)N[C@H](C(=O)NCC(=O)N[C@@H](CCCCN)C(=O)N[C@@H](CCC(N)=O)C(=O)NCC(=O)N[C@@H](CC(=O)O)C(=O)N[C@@H](CCCNC(N)=O)C(=O)NCC(=O)N[C@@H](CCC(=O)O)C(=O)O)[C@@H](C)O [PGPAGPTGKQGDXGE] (H-PGPAGPTGKQGD[Cit]GE-OH; N-terminus and C-terminus assumed)

>  <experimental_result>
1.0

$$$$
>  <compound>
C[C@H](N)C(=O)N[C@@H](CCCNC(N)=O)C(=O)NCC(=O)N[C@@H](C)C(=O)N[C@@H](CCC(N)=O)C(=O)NCC(=O)N1CCC[C@H]1C(=O)N1CCC[C@H]1C(=O)NCC(=O)N[C@@H](C)C(=O)N[C@H](C(=O)NCC(=O)N[C@@H](Cc1ccccc1)C(=O)N1CCC[C@H]1C(=O)NCC(=O)O)[C@@H](C)O [AXGAQGPPGATGFPG] (H-A[Cit]GAQGPPGATGFPG-OH; N-terminus and C-terminus assumed)

>  <experimental_result>
0.7

$$$$
>  <compound>
C[C@H](NC(=O)CNC(=O)[C@@H]1CCCN1C(=O)[C@H](CO)NC(=O)CNC(=O)[C@H](CCC(=O)O)NC(=O)[C@@H](N)CCCNC(=N)N)C(=O)N[C@@H](CC(=O)O)C(=O)NCC(=O)N1CCC[C@H]1C(=O)N1CCC[C@H]1C(=O)NCC(=O)N[C@@H](CCCNC(N)=O)C(=O)N[C@@H](CC(=O)O)C(=O)NCC(=O)O [REGSPGADGPPGXDG] (H-REGSPGADGPPG[Cit]DG-OH; N-terminus and C-terminus assumed)

>  <experimental_result>
1.0

$$$$

Here is the next item to consider.
Quick note, DRB1*01:01 binding capacity, WT/cit ratio for CSCC[C@H](NC(=O)[C@@H]1CCCN1C(=O)CNC(=O)[C@H](CCC(N)=O)NC(=O)[C@H](C)NC(=O)CNC(=O)[C@H](C)NC(=O)[C@H](CCC(=O)O)NC(=O)CNC(=O)[C@H](CCCNC(N)=O)NC(=O)[C@H](CC(=O)O)NC(=O)CN)C(=O)NCC(=O)N1CCC[C@H]1C(=O)N[C@@H](CO)C(=O)O [GDXGEAGAQGPMGPS] (H-GD[Cit]GEAGAQGPMGPS-OH; N-terminus and C-terminus assumed) landed at 0.2

----------
Target: HLA-DRB1*01:01 (Homo sapiens, UniProt P01903+P01911, A100R/D57E/F55L/F60I/F76Y/I96L/L162R/M171V/P40L/Q125E/R42F/V115G/Y59C)
Construct: EBV transformed homozygous cell lines were used as sources of MHC molecules; endogenous in cells; host or cells: EBV transformed homozygous cell lines
Test: HLA class II peptide binding, inhibition of radiolabeled peptide binding to purified MHC
Conditions: read-out: DRB1*01:01 binding capacity, WT peptide (IC50 nM)
Ends that are not written are not given here.
Kindly apply the following: YES if IC50 is less than 500 nM, NO in every other case.

>  <sequence_content>
GGPGTASRPSSSRSY [Vimentin 16 WT]

>  <discrete_label>
NO

$$$$
>  <sequence_content>
NYIDKVRFLEQQNKI [Vimentin 116 WT]

>  <discrete_label>
YES

$$$$
>  <sequence_content>
SAVRLRSSVPGVRLL [Vimentin 66 WT]

>  <discrete_label>
YES

$$$$
>  <sequence_content>
NDKARVEVERDNLAE [Vimentin 166 WT]

>  <discrete_label>
NO

$$$$
>  <sequence_content>
LLAELEQLKGQGKSR [Vimentin 131 WT]

>  <discrete_label>
YES

$$$$

**Q:** Answer whether the sequence IDVDVSKPDLTAALR [Vimentin 256 WT] has IC50 strictly less than 500 nM
**A:** NO

**Q:** Answer whether the sequence VTTSTRTYSLGSALR [Vimentin 31 WT] has IC50 strictly less than 500 nM
**A:** YES

**Q:** Answer whether the sequence AANRNNDALRQAKQE [Vimentin 301 WT] has IC50 strictly less than 500 nM
**A:** NO

**Q:** Answer whether the sequence VDQLTNDKARVEVER [Vimentin 161 WT] has IC50 strictly less than 500 nM
**A:** NO

**Q:** Answer whether the sequence EEEMRELRRQVDQLT [Vimentin 151 WT] has IC50 strictly less than 500 nM
**A:** YES

**Q:** Answer whether the sequence REKLQEEMLQREEAE [Vimentin 186 WT] has IC50 strictly less than 500 nM
**A:** NO

**Q:** Answer whether the sequence EEMLQREEAENTLQS [Vimentin 191 WT] has IC50 strictly less than 500 nM
**A:** NO

----------
Target: HLA-DRB1*04:01 (Homo sapiens, UniProt P01903+P01911, A100K/A169T/F76Y/I96L/K127E/L162R/M171V/N62H/P40V/Q125Y/R42H/S133A/S149N/S66Y/V115G/V209L/W38E)
Construct: EBV transformed homozygous cell lines were used as sources of MHC molecules; endogenous in cells; host or cells: EBV transformed homozygous cell lines
Assay: HLA class II peptide binding, inhibition of radiolabeled peptide binding to purified MHC
Conditions: citrullinated 15-mer peptide (X = citrulline); purified HLA-DRB1*04:01; read-out: DRB1*04:01 binding capacity, Cit peptide (IC50 nM)
Square brackets hold non-standard residues; d marks the D form. Peptide text beside a SMILES is read from it. Cit = NC(=O)NCCC[C@H](N)C(=O)O
Answer each item with its documented IC50.

>  <molecule>
CC(C)C[C@H](NC(=O)[C@H](C)NC(=O)[C@H](CC(=O)O)NC(=O)[C@@H](N)CC(N)=O)C(=O)N[C@@H](CCCNC(N)=O)C(=O)N[C@@H](CCC(N)=O)C(=O)N[C@@H](C)C(=O)N[C@@H](CCCCN)C(=O)N[C@@H](CCC(N)=O)C(=O)N[C@@H](CCC(=O)O)C(=O)N[C@@H](CO)C(=O)N[C@H](C(=O)N[C@@H](CCC(=O)O)C(=O)N[C@@H](Cc1ccc(O)cc1)C(=O)N[C@@H](CCCNC(=N)N)C(=O)O)[C@@H](C)O [NDALXQAKQESTEYR] (H-NDAL[Cit]QAKQESTEYR-OH)

>  <experimental_result>
> 40000 nM

$$$$

Here is the next item to consider.
Quick note, IC50 for CC(C)C[C@H](NC(=O)[C@H](CO)NC(=O)[C@H](CCC(N)=O)NC(=O)[C@@H](NC(=O)[C@H](CCC(N)=O)NC(=O)[C@H](CCCNC(=N)N)NC(=O)[C@H](CCCNC(N)=O)NC(=O)[C@H](Cc1ccc(O)cc1)NC(=O)[C@H](CCC(=O)O)NC(=O)[C@@H](NC(=O)[C@@H](N)CO)[C@@H](C)O)C(C)C)C(=O)N[C@H](C(=O)N[C@@H](CS)C(=O)N[C@@H](CCC(=O)O)C(=O)N[C@H](C(=O)O)C(C)C)[C@@H](C)O [STEYXRQVQSLTCEV] (H-STEY[Cit]RQVQSLTCEV-OH) landed at 1510 nM

----------
Molecular target: HLA-DRB1*01:01 (Homo sapiens, UniProt P01903+P01911, A100R/D57E/F55L/F60I/F76Y/I96L/L162R/M171V/P40L/Q125E/R42F/V115G/Y59C)
Construct: EBV transformed homozygous cell lines were used as sources of MHC molecules; endogenous in cells; host or cells: EBV transformed homozygous cell lines
Test: HLA class II peptide binding, inhibition of radiolabeled peptide binding to purified MHC
Conditions: citrullinated 15-mer (X); purified MHC, inhibition of radiolabeled peptide binding; dash = IC50 >40,000 nM; read-out: DRB1*01:01 binding capacity, Cit peptide (IC50 nM)
Square brackets hold non-standard residues; d marks the D form. Peptide text beside a SMILES is read from it. Cit = NC(=O)NCCC[C@H](N)C(=O)O
assay_endpoint: IC50

Quick note, IC50 for CSCC[C@H](NC(=O)[C@H](CCC(=O)O)NC(=O)[C@H](CCC(=O)O)NC(=O)[C@H](CCC(=O)O)NC(=O)[C@H](Cc1ccc(O)cc1)NC(=O)[C@H](CC(C)C)NC(=O)[C@H](CC(=O)O)NC(=O)CNC(=O)[C@H](CC(C)C)NC(=O)[C@H](CCCNC(=N)N)NC(=O)[C@H](CO)NC(=O)[C@H](CCCCN)NC(=O)CNC(=O)[C@@H](N)CCC(N)=O)C(=O)N[C@@H](CCCNC(N)=O)C(=O)O [QGKSRLGDLYEEEMX] (H-QGKSRLGDLYEEEM[Cit]-OH; N-terminus and C-terminus assumed) landed at > 40000 nM
